biological target: S1P1 (Homo sapiens (Human)); assay: 35S-GTPγS binding, membranes from CHO cells expressing S1P1; conditions: CHO cell membranes
readout-kind: EC50
Number first, unit second: that is the form wanted.

Input: What measured EC50 goes with c1ccc(-c2nc(-c3cnn(C4CCCCC4)c3-c3ccccc3)no2)cc1 [Example 51] ?
Output: 310 nM

Input: Now consider CS(=O)(=O)c1cccc(-c2noc(-c3cnn(C4CCCCC4)c3-c3ccncc3)n2)c1 [Example 26] .
Output: 29 nM

Input: Now consider COCc1c(-c2nc(-c3ccc(CCN4CCC(C(=O)O)CC4)cc3)no2)cnn1C1CCCCC1 [Example 130] .
Output: 36 nM

Input: Now consider c1cc(-c2c(-c3nc(-c4ccc5[nH]ncc5c4)no3)cnn2C2CCCCC2)ccn1 [Example 38] .
Output: 3 nM

Input: Now consider COCc1c(-c2nc(-c3cccc(O)c3)no2)cnn1C1CCCCC1 [Example 126] .
Output: 168 nM

###

biological target: S1P3 (Homo sapiens (Human)); assay: 35S-GTPγS binding, membranes from CHO cells expressing S1P3; conditions: CHO cell membranes
Sequence (Q99500 whole entry, species assumed): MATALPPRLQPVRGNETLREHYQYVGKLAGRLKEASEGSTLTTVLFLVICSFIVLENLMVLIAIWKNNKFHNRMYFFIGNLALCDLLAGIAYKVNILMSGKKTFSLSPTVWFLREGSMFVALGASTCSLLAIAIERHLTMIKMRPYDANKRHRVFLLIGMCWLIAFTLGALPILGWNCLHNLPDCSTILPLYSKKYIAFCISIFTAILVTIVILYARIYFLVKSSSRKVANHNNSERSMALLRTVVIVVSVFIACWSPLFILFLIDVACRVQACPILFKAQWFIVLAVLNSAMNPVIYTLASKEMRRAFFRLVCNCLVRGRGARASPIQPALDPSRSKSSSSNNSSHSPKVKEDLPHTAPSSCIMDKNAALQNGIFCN
Reported values of EC50 for individual entries

Known results for molecules:
CC(C)Cn1ncc(-c2nc(-c3cccc(C(F)(F)F)c3)no2)c1-c1ccncc1: > 20 µM
CS(=O)(=O)c1cccc(-c2noc(-c3cnn(-c4ccccc4F)c3-c3ccncc3)n2)c1: > 20 µM
Fc1ccc(F)c(-c2noc(-c3cnn(C4CCCCC4)c3C3CCOCC3)n2)c1: > 20 µM

Input: What measured EC50 goes with `COCc1c(-c2nc(-c3cc(F)ccc3F)no2)cnn1-c1ccccc1` ?
Output: > 20 µM

###

target: S1P1 (Homo sapiens (Human), UniProt P21453)
Sequence (P21453 whole entry, species assumed): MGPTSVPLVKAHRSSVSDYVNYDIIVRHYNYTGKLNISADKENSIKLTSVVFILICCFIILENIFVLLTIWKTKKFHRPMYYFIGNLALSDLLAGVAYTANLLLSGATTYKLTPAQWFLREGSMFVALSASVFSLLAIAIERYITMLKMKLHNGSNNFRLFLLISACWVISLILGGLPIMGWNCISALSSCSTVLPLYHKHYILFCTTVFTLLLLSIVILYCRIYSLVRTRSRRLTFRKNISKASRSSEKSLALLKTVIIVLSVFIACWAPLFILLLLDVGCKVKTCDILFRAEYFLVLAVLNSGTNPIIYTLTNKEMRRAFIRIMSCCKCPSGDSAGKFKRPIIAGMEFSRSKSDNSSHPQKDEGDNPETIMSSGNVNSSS
Entry class follows Ki: low group: < 5 nM; middle group: ≥ 5 nM and < 100 nM; high group: ≥ 100 nM

Consider the worked cases shown below.
CC(C)(C)Cn1ncc(-c2nc(-c3ccc(CN4CC(C(=O)O)C4)cc3)no2)c1-c1ccncc1 [Example 105]: middle group
N#CCc1ccc(-c2noc(-c3cnn(C4CCCCC4)c3-c3ccncc3)n2)cc1 [Example 152]: low group
c1cnn(Cc2ccc(-c3noc(-c4cnn(C5CCCCC5)c4-c4ccncc4)n3)cc2)c1 [Example 149]: middle group
c1cnn(Cc2ccc(-c3noc(-c4cnn(C5CCCCC5)c4-c4ccncc4)n3)cc2)c1 [Example 137]: middle group
COCc1c(-c2nc(-c3cccc(/C=C/C(=O)O)c3)no2)cnn1C1CCCCC1 [Example 142]: high group

Input: Consider COCc1c(-c2nc(-c3cc(F)ccc3F)no2)cnn1-c1ccccc1 [Example 1] . To which Ki class does it belong?
Output: high group

###

Reported values of EC50 for individual entries
target: S1P1 (Homo sapiens (Human), UniProt P21453); assay: 35S-GTPγS binding, membranes from CHO cells expressing S1P1; settings: CHO cell membranes
Structures can show the parent of a compound that is named as a salt.
Number in nM, nothing else.

Known results for compounds:
Cc1ccccc1-c1c(-c2nc(-c3cc(F)ccc3F)no2)cnn1C1CCCCC1 [Example 48]: 47
O=C(O)C1CCN(Cc2ccc(-c3noc(-c4cnn(C5CCCCC5)c4C4CCCO4)n3)cc2)CC1 (centres unmarked) [Example 125]: 1.9
COCCc1c(-c2nc(-c3cccc(C(F)(F)F)c3)no2)cnn1C1CCCCC1 [Example 108]: 102

Input: What measured EC50 goes with Fc1ccc(F)c(-c2noc(-c3cnn(C4CCCCC4)c3-c3ccccc3)n2)c1 [Example 11] ?
Output: 6

Input: Now consider COCc1c(-c2nc(-c3cc(F)ccc3F)no2)cnn1C1CCCCC1 [Example 27] .
Output: 27

Input: Now consider CC(C)Cn1ncc(-c2nc(-c3ccc(CN(C)C)cc3)no2)c1-c1ccncc1 [Example 81, formate] .
Output: 195

Input: Now consider CC(C)(C)Cn1ncc(-c2nc(-c3cc(F)ccc3F)no2)c1-c1ccncc1 [Example 93] .
Output: 301
